These entries and their values trace back to paper PMC8868508.

# Tested on: E. coli NCTC 10418
# Format: cell-based, Escherichia coli
Where a SMILES comes first, the peptide text is derived from it.
property_measured: MBC

Request: Fill blank: measured MBC of the compound CC[C@H](C)[C@H](NC(=O)[C@H](C)NC(=O)[C@H](CCC(=O)O)NC(=O)[C@H](CCC(N)=O)NC(=O)[C@H](CCCCN)NC(=O)CNC(=O)[C@H](C)NC(=O)[C@H](CC(C)C)NC(=O)[C@H](C)NC(=O)[C@H](CC(C)C)NC(=O)[C@@H](N)Cc1ccccc1)C(=O)N[C@@H](C)C(=O)N[C@@H](CCCCN)C(=O)N[C@@H](CC(C)C)C(=O)N[C@@H](CCCCN)C(N)=O [QUB-1599] (H-FLALAGKQEAIAKLK-NH2) is ____.
Response: > 128 µM

Request: Which MBC is reported for this compound? CC[C@H](C)[C@H](NC(=O)[C@H](C)NC(=O)[C@H](CCC(=O)O)NC(=O)[C@H](CCC(N)=O)NC(=O)[C@@H](NC(=O)[C@H](CC(C)C)NC(=O)[C@H](CCCCN)NC(=O)CNC(=O)[C@H](C)NC(=O)[C@H](CC(C)C)NC(=O)[C@@H](N)Cc1ccccc1)[C@@H](C)CC)C(=O)N[C@@H](C)C(=O)N[C@@H](CCCCN)C(=O)N[C@@H](CC(C)C)C(=O)N[C@@H](CCCCN)C(N)=O [QUB-1643] (H-FLAGKLIQEAIAKLK-NH2)
Response: > 128 µM

Request: What value of measured MBC is listed for CC[C@H](C)[C@H](NC(=O)[C@H](C)NC(=O)CNC(=O)CNC(=O)[C@@H](NC(=O)[C@H](CC(C)C)NC(=O)[C@H](C)NC(=O)[C@H](CC(C)C)NC(=O)[C@H](C)NC(=O)[C@H](CC(C)C)NC(=O)[C@@H](N)Cc1ccccc1)[C@@H](C)CC)C(=O)N[C@@H](C)C(=O)N[C@@H](CCCCN)C(=O)N[C@@H](CC(C)C)C(=O)N[C@@H](CCCCN)C(N)=O [QUB-1498] (H-FLALALIGGAIAKLK-NH2) ?
Response: > 128 µM
